systemTested: 5-hydroxytryptamine receptor 2B (Homo sapiens)
protocolNotes: Effective concentration required for accumulation of [3H]inositol phosphate in cells transiently expressing human 5-hydroxytryptamine 2B receptor determined by phosphoinositide hydrolysis assay
measuredMetric: pEC50
pEC50 here: minus log base 10 of the concentration, concentration in moles per litre.

Query: Recall and state the measured pEC50 for CN(C)CCc1c[nH]c2cccc(F)c12 .
Result: 5.93

---

systemTested: 5-hydroxytryptamine receptor 2A (Homo sapiens, UniProt P28223)
Sequence (P28223 whole entry): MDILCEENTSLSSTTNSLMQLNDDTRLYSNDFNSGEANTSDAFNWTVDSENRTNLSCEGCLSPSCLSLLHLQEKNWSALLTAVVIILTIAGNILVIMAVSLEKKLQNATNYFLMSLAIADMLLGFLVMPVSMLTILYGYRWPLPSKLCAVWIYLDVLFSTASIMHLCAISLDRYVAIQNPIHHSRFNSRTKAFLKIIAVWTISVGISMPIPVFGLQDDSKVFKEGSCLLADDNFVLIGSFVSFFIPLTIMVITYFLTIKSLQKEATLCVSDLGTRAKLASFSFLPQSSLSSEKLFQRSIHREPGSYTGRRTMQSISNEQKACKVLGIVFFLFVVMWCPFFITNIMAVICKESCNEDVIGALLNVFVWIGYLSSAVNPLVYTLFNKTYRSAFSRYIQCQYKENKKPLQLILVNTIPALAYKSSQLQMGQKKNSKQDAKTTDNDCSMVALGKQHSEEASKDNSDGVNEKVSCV
protocolNotes: Effective concentration required for accumulation of [3H]inositol phosphate in cells stably expressing human 5-hydroxytryptamine 2A receptor determined by phosphoinositide hydrolysis assay
Assay type: functional
measuredMetric: EC50 (µM)
Expressed in µM, but write only the number.

In the examples that follow, each entry is paired with its recorded EC50.
CN(C)CCc1cn(C)c2cccc(O)c12 : 0.633
CN(C)CCc1c[nH]c2cccc(F)c12 : 0.949
CN(C)CCc1c[nH]c2cccc(OP(=O)(O)O)c12 : 3.48

Shift focus to the following entry.
Query: Look up and report measured EC50 for this entry: CCCCn1cc(CCN(C)C)c2c(O)cccc21
Result: 0.032

---

// 5-hydroxytryptamine receptor 2A (Rattus norvegicus) pKi records
# log scale: pKi equals minus log10 of the concentration in mol/L

Please review the following examples before continuing.
CN1CCN(CCc2c[nH]c3cccc(O)c23)CC1 : 5.16
Cc1[nH]c2cccc(O)c2c1CCN(C)C : 5.77

Query: Write down measured pKi (5-hydroxytryptamine receptor 2A (Rattus norvegicus)) for this molecule. CCCCn1cc(CCN(C)C)c2c(O)cccc21
Result: 6.70

Query: Report value: pKi, system: 5-hydroxytryptamine receptor 2A (Rattus norvegicus), molecule: CN(C)Cc1c[nH]c2cccc(O)c12
Sequence (P14842 whole entry): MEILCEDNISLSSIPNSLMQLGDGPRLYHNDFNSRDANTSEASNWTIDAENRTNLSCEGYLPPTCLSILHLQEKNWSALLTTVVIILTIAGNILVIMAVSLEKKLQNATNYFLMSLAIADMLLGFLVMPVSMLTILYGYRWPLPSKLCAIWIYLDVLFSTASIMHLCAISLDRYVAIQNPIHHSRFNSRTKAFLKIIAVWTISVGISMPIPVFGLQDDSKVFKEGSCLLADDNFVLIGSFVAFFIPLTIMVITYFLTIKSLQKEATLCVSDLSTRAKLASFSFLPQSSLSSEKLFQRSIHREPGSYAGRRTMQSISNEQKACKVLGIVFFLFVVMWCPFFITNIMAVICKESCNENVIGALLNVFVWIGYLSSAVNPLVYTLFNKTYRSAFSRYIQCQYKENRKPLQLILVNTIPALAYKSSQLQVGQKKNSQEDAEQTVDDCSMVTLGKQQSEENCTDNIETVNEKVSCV
Result: 6.08

Query: Provide pKi, system 5-hydroxytryptamine receptor 2A (Rattus norvegicus), entry Oc1cccc2[nH]cc(CCN3CCCc4ccccc43)c12
Result: 5.08

Query: Lab note: 5-hydroxytryptamine receptor 2A (Rattus norvegicus) assay, enter pKi for CN(C)CCc1cn(C)c2cccc(O)c12 here
Result: 6.23

Query: Provide pKi, system 5-hydroxytryptamine receptor 2A (Rattus norvegicus), entry CN(C)CCc1c[nH]c2cccc(F)c12
Result: 6.00

---

systemTested: 5-hydroxytryptamine receptor 2C (Homo sapiens)
Sequence (P28335 whole entry, canonical isoform): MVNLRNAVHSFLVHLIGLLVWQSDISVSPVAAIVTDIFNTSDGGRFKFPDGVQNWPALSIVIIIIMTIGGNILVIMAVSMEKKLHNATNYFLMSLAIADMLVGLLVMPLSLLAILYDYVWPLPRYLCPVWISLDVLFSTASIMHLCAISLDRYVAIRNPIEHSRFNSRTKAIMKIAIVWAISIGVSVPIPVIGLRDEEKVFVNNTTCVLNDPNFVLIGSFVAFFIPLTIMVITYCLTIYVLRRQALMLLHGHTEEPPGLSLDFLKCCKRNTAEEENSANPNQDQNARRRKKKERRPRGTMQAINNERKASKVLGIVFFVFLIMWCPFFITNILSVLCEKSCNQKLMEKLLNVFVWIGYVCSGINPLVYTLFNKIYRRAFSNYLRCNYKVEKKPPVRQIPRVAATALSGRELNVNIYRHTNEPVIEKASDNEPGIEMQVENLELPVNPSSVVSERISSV
protocolNotes: Inhibition constant against human 5-hydroxytryptamine 2C receptor [INI isoforms] using [3H]mesulergine as radioligand with the compound (10 uM) dissolved in DMSO
measuredMetric: pKi
Reminder that pKi is minus the log10 of a molar concentration.

Look over these answered cases.
CN(C)Cc1c[nH]c2cccc(O)c12 : 7.62
CCCCn1cc(CCN(C)C)c2c(O)cccc21 : 8.36
CC(Cc1c[nH]c2cccc(O)c12)N(C)C (centres undefined) : 6.90
CN(C)CCn1ccc2c(O)cccc21 : 5.66
CN(C)Cc1cn(C)c2cccc(O)c12 : 7.06
CN(C)CCCc1c[nH]c2cccc(O)c12 : 5.95
CN1CCN(CCc2c[nH]c3cccc(O)c23)CC1 : 6.99
Oc1cccc2[nH]cc(CCN3CCCc4ccccc43)c12 : 6.33
Oc1cccc2[nH]cc(CCN3CCCC3)c12 : 6.56
CCCCn1cc(CCN(C)C)c2c(OP(=O)(O)O)cccc21 : 7.14

Query: Please indicate pKi recorded for CN(C)CCc1cn(C)c2cccc(O)c12
Result: 8.15

Query: Tell me measured pKi for CN(C)CCc1c[nH]c2cccc(F)c12 please.
Result: 7.09

---

systemTested: 5-hydroxytryptamine receptor 2C (Homo sapiens)
protocolNotes: Inhibition constant against human 5-hydroxytryptamine 2C receptor [VGI isoforms] using [3H]mesulergine as radioligand with the compound (10 uM) dissolved in DMSO
Here the recorded Ki is given for each entry.
The response must be a number in µM with no trailing unit.

Cc1[nH]c2cccc(O)c2c1CCN(C)C : 0.539

Query: Answer with reported Ki of CN(C)CCc1cn(C)c2cccc(OP(=O)(O)O)c12
Result: 0.54

Query: State its Ki: Oc1cccc2[nH]cc(CCN3CCCC3)c12
Result: 1.77

Query: Supply measured Ki of CN(C)CCCc1c[nH]c2cccc(O)c12 in your reply.
Result: 0.084

---

systemTested: 5-hydroxytryptamine receptor 2B (Homo sapiens, UniProt P41595)
Sequence (P41595 whole entry): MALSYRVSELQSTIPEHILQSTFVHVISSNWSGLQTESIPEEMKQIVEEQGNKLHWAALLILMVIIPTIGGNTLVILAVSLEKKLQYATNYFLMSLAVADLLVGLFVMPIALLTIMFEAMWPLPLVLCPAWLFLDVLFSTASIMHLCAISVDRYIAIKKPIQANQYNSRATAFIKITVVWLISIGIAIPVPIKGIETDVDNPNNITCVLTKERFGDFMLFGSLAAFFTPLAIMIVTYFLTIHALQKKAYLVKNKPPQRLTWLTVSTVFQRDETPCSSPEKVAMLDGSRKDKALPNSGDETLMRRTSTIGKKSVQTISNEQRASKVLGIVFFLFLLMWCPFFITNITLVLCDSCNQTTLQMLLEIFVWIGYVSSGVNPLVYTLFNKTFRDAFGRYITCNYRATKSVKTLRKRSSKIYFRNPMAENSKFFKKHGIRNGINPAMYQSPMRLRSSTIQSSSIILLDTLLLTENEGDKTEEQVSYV
Could you please mark 1 for values of Ki below 100 nM and 0 for values at or above it?

Recorded results for 2 compounds are shown here.
Oc1cccc2[nH]cc(CCN3CCCC3)c12 : 0
CCCCn1cc(CCN(C)C)c2c(O)cccc21 : 1

Query: Could you please tell me whether Ki recorded for CN(C)CCc1c[nH]c2cccc(F)c12 is less than 100 nM?
Result: 1

Query: Lab log: compare recorded Ki with 100 nM; is it strictly lower for CN(C)CCc1cn(C)c2cccc(O)c12 ?
Result: 1

Query: Please check: Ki for CCCCn1cc(CCN(C)C)c2c(OP(=O)(O)O)cccc21 , strictly under 100 nM or not?
Result: 0

---

systemTested: 5-hydroxytryptamine receptor 2B (Homo sapiens, UniProt P41595)
Just a reminder that ties go to -1: only Ki strictly below 1000 nM counts as 1.

Here's what some known entries look like.
CN(C)Cc1c[nH]c2cccc(O)c12 : -1
CN(C)CCc1cn(C)c2cccc(OP(=O)(O)O)c12 : -1

Query: Please check: Ki for Oc1cccc2[nH]cc(CCN3CCCc4ccccc43)c12 , strictly under 1000 nM or not?
Result: -1

Query: Here's an entry: CN(C)CCc1c[nH]c2cc(O)ccc12 . Is its Ki below 1000 nM?
Result: -1

Query: # TODO verify Ki < 1000 nM strictly for this molecule: CN1CCN(CCc2c[nH]c3cccc(O)c23)CC1
Result: 1

Query: Lab note: Ki threshold 1000 nM. Does this molecule come in strictly under it? CN(C)Cc1cn(C)c2cccc(O)c12
Result: -1

Query: Is Ki of CC(Cc1c[nH]c2cccc(O)c12)N(C)C (configuration not stated) strictly below 1000 nM?
Result: 1

---

systemTested: 5-hydroxytryptamine receptor 2C (Homo sapiens)
protocolNotes: Effective concentration required for accumulation of [3H]inositol phosphate in cells stably expressing human 5-hydroxytryptamine 2C receptor determined by phosphoinositide hydrolysis assay
Examples of compounds with documented EC50 follow.

Sample answers from the record:
CN(C)CCc1cn(C)c2cccc(O)c12 : 12 nM
CCCCn1cc(CCN(C)C)c2c(O)cccc21 : 595 nM
CN(C)CCc1c[nH]c2cccc(F)c12 : 99 nM

Would you kindly look at the next entry?
Query: Output measured EC50 for this item: CN(C)CCc1c[nH]c2cccc(OP(=O)(O)O)c12
Result: 506 nM

---

systemTested: UniProt P08909
Sequence (P08909 whole entry): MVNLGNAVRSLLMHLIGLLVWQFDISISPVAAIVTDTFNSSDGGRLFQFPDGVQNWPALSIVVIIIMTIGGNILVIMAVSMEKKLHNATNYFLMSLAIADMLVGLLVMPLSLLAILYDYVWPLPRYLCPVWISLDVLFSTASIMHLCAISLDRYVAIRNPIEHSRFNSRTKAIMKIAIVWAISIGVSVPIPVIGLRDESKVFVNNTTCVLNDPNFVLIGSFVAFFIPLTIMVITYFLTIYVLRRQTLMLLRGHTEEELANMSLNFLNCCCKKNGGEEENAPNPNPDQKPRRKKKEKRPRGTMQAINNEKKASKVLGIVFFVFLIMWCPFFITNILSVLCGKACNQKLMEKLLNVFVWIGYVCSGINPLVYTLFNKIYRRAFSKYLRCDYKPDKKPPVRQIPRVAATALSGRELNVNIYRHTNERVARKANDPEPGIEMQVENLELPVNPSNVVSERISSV
pKi: −log10 of the molar value.
Given measured pKi, output 1 if it is greater than or equal to 7 and -1 if not.

CCCCn1cc(CCN(C)C)c2c(OP(=O)(O)O)cccc21 : -1
CN(C)CCc1cn(C)c2cccc(O)c12 : 1
CCCCn1cc(CCN(C)C)c2c(O)cccc21 : 1
CN(C)CCc1c[nH]c2cccc(F)c12 : -1

Query: # bool: pKi of Oc1cccc2[nH]cc(CCN3CCCc4ccccc43)c12 >= 7
Result: -1

Query: Could you verify whether the entry CN(C)CCc1c[nH]c2cc(O)ccc12 shows pKi of no less than 7?
Result: -1

Query: API: above_or_equal(metric=pKi, cutoff=7) for item CN(C)CCn1ccc2c(O)cccc21
Result: -1

Query: Does Cc1[nH]c2cccc(O)c2c1CCN(C)C have a reported pKi of at least 7?
Result: -1

Query: Can CN(C)CCc1cn(C)c2cccc(OP(=O)(O)O)c12 be said to have pKi at or above 7?
Result: -1

Query: Is pKi for CN1CCN(CCc2c[nH]c3cccc(O)c23)CC1 at or above 7?
Result: -1

Query: In plain terms: is recorded pKi at least 7 for CN(C)Cc1c[nH]c2cccc(O)c12 ?
Result: 1
